# assay-method-text: probe aCHRDL2 binding to arrayed compounds – biochemical, biotinylated probe, 635/667 nm fluorescence, primary screen (AID 1100)
# experimental-parameters: small-molecule microarray, higher = more signal
Quick rule: composite z-score of at least 0.6 means Condition met, below that means Condition not met.

Q: Can COc1ccc([Si](C)(C)[C@H]2[C@H](CCO)O[C@@]3(C(=O)N(Cc4ccccc4)c4ccc(N5CCCCC5=O)cc43)[C@@H]2C)cc1 be said to have composite z-score at or above 0.6?
Ans: Condition not met

Q: # repeat for CCOC(=O)C[C@H]1[C@H](OC(=O)c2cc3ccccc3oc2=O)[C@@H](NC(=O)CC(C)C)c2cc(OCCCO)ccc2N1C(=O)c1ccccc1
Ans: Condition not met

Q: # repeat for C=CC1c2cc(O)c(OC)cc2CCN1Cc1cccc(OC(F)(F)F)c1 (stereo not drawn)
Ans: Condition not met

Q: # repeat for C[N+](C)(C)CCCC[C@@H]1NC(=O)[C@H]2C[C@@H](C(=O)NCCCCCCNC(=O)CS)[C@@H](c3ccc(O)cc3)N2C1=O
Ans: Condition met

Q: # repeat for CN(C)CCCCNC(=O)[C@@H]1C[C@@H]2C(=O)N[C@@H](CCCCN)C(=O)N2[C@@H]1c1ccc(O)cc1
Ans: Condition not met

Q: # repeat for CCCC=C(CCC)[C@@H](NC(=O)OCC(C)C)c1ccccc1
Ans: Condition met
